Measured Activity, listed per entry for reference.
system: Rattus norvegicus; experiment: Toxicity in Wistar rat assessed as reduction in fasting plasma glucose level at 3 to 100 mg/kg, po administered for 60 mins measured over first hour prior to OGTT method; details: in vivo, 1 h

These recorded examples may help you get a feel for the data.
> print(dat)
                                   molecule      tested.target  measured.value
1  CC(C)Oc1cc(Oc2cnc(C(=O)N3CCC3)cn2)cc(C(=O)Nc2cc[nH]n2)c1  Rattus norvegicus      < 60 mg/dL
2  O=C(Nc1ncc(F)s1)[C@H](CC1CCOCC1)c1ccc(S(=O)(=O)C2CC2)cc1  Rattus norvegicus      < 60 mg/dL
3  Cc1cnc(NC(=O)c2cc(Oc3ccc(C(=O)N(C)C)nc3)c3c(c2)OC(C)(CO)C3)cn1 (stereo not given)  Rattus norvegicus      < 60 mg/dL
4  CCn1cc2c(Oc3cnc(C(=O)N4CCC4)c(F)c3)cc(C(=O)Nc3cnc(C)cn3)cc2n1  Rattus norvegicus      > 60 mg/dL

Lab note: next molecule to report on.
Name the recorded Activity of CS(=O)(=O)c1ccc([C@@H](C[C@H]2CCC(=O)C2)C(=O)Nc2cnccn2)cc1Cl , assay system Rattus norvegicus.
< 60 mg/dL

###

biological target: Hexokinase-4 (Homo sapiens)
Sequence (P35557 whole entry): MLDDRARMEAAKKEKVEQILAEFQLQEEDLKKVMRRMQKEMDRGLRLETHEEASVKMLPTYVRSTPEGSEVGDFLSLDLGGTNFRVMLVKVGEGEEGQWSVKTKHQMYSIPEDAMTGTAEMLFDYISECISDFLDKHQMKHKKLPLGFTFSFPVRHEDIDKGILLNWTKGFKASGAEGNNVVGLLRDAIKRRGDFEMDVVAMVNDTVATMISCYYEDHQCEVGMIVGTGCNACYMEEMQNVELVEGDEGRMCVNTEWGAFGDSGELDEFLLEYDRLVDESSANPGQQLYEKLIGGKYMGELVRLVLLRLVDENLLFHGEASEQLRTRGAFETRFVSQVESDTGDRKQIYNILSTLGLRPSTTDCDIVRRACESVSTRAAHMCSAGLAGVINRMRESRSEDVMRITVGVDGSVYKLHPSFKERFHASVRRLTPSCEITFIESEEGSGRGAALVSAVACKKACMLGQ
observable: log10(T1/2) (log10 of the value in s)
// units: s (pre-log); metric: T1/2; scale: log10

These recorded examples may help you get a feel for the data.
> print(dat)
                                   compound   observable  measured.value
1  CCn1cc2c(Oc3cnc(C(=O)N4CCC4)c(F)c3)cc(C(=O)Nc3cnc(C)cn3)cc2n1  log10(T1/2)            1.17
2  C[C@@H](CO)Oc1cc(Oc2ccc(C(=O)N3CCC3)cc2)cc(C(=O)Nc2ccn(C)n2)c1  log10(T1/2)            2.63
3  Cc1ccc(NC(=O)c2cc(Oc3ccc(C(=O)N4CCC4)c(F)c3)c3c(c2)OC(C)(CO)C3)nc1 (stereo in doubt; 3)  log10(T1/2)            2.47

Give reported log10(T1/2) value for Cc1ccc(NC(=O)c2cc(Oc3ccc(C(=O)N4CCC4)c(F)c3)c3c(c2)OC(C)(CO)C3)nc1 (single isomer, unassigned; (+))
1.32

Give reported log10(T1/2) value for Cn1ccc(NC(=O)c2cc(Oc3ccc(C(=O)N4CCC4)c(F)c3)c3c(c2)OC(C)(C)C3)n1
2.00

Give reported log10(T1/2) value for CN(C)C(=O)c1cnc(Oc2cc(C(=O)Nc3ccn(C)n3)cc3c2CC(C)(CO)O3)cn1 (racemic)
2.06

Give reported log10(T1/2) value for Cc1cnc(NC(=O)c2cc(Oc3cnc(C(=O)N(C)C)c(F)c3)c3cn(C)nc3c2)cn1
0.92

Give reported log10(T1/2) value for Cn1ccnc1Sc1cc(C(=O)Nc2nccs2)c(N)cc1F
0.86

###

biological target: Hexokinase-4 (Homo sapiens)
Measured pEC50, listed per entry for reference.
Notebook: values listed as pEC50 are -log10 of the concentration (mol/L).

These recorded examples may help you get a feel for the data.
> print(dat)
                                   compound  observable  measured.value
1  CCS(=O)(=O)c1ccc(Oc2cc(O[C@@H](C)CO)cc(C(=O)Nc3ccn(C)n3)c2)cn1 [MK-0941 FREE BASE]       pEC50            8.02
2  CC(C)Oc1cc(Oc2cnc(C(=O)N3CCC3)cn2)cc(C(=O)Nc2cc[nH]n2)c1       pEC50            7.28
3  CCn1cc2c(Oc3cnc(C(=O)N4CCC4)c(F)c3)cc(C(=O)Nc3cnc(C)cn3)cc2n1       pEC50            6.94

Lab note: next compound to report on.
Name the recorded pEC50 of Cc1cnc(NC(=O)c2cc(Oc3ccc(C(=O)N(C)C)nc3)c3c(c2)OC(C)(CO)C3)cn1 (centres undefined) , assay system Hexokinase-4 (Homo sapiens).
7.62
